experiment: Probe fluorescence ratio response to linolenic acid relative to ADIFAB2; format: binding; settings: response relative to ADIFAB2
Recorded DR/DR LNA for the following molecules

{"MOLECULE": "55P1, 72A (protein, listed as Rattus norvegicus, PEPTIDE (1)...(131) wild-type rat intestinal fatty acid binding protein) AFDGTWKVDRNENYEKFMEKMGINVVKRKLGAHDNLKLTITQEGNKFTVKESSNPRNIDVVFELGVDFAYSAADGTELTGTWTMEGNKLVGKFKRVDNGKELIAVREISGNELIQTYTYEGVEAKRIFKKE", "DR/DR LNA": 0.96}
{"MOLECULE": "60G, 72A (protein, listed as Rattus norvegicus, PEPTIDE (1)...(131) wild-type rat intestinal fatty acid binding protein) AFDGTWKVDRNENYEKFMEKMGINVVKRKLGAHDNLKLTITQEGNKFTVKESSNFRNIDGVFELGVDFAYSAADGTELTGTWTMEGNKLVGKFKRVDNGKELIAVREISGNELIQTYTYEGVEAKRIFKKE", "DR/DR LNA": 0.24}
{"MOLECULE": "115Y1, 72A (protein, listed as Rattus norvegicus, PEPTIDE (1)...(131) wild-type rat intestinal fatty acid binding protein) AFDGTWKVDRNENYEKFMEKMGINVVKRKLGAHDNLKLTITQEGNKFTVKESSNFRNIDVVFELGVDFAYSAADGTELTGTWTMEGNKLVGKFKRVDNGKELIAVREISGNELIYTYTYEGVEAKRIFKKE", "DR/DR LNA": 1.27}
{"MOLECULE": "36D1, 72A (protein, listed as Rattus norvegicus, PEPTIDE (1)...(131) wild-type rat intestinal fatty acid binding protein) AFDGTWKVDRNENYEKFMEKMGINVVKRKLGAHDNDKLTITQEGNKFTVKESSNFRNIDVVFELGVDFAYSAADGTELTGTWTMEGNKLVGKFKRVDNGKELIAVREISGNELIQTYTYEGVEAKRIFKKE", "DR/DR LNA": 0.21}
{"MOLECULE": "36E2, 72A (protein, listed as Rattus norvegicus, PEPTIDE (1)...(131) wild-type rat intestinal fatty acid binding protein) AFDGTWKVDRNENYEKFMEKMGINVVKRKLGAHDNEKLTITQEGNKFTVKESSNFRNIDVVFELGVDFAYSAADGTELTGTWTMEGNKLVGKFKRVDNGKELIAVREISGNELIQTYTYEGVEAKRIFKKE", "DR/DR LNA": 0.23}
{"MOLECULE": "104G, 72A (protein, listed as Rattus norvegicus, PEPTIDE (1)...(131) wild-type rat intestinal fatty acid binding protein) AFDGTWKVDRNENYEKFMEKMGINVVKRKLGAHDNLKLTITQEGNKFTVKESSNFRNIDVVFELGVDFAYSAADGTELTGTWTMEGNKLVGKFKRVDNGKELIGVREISGNELIQTYTYEGVEAKRIFKKE", "DR/DR LNA": 0.687}
